- Measured target: Ras-related C3 botulinum toxin substrate 1 (Mus musculus, UniProt P63001)
- Assay notes: activated mutant Rac1 GTP binding inhibitors, SAR follow-up, biochemical, additional analogs, multiplex bead flow cytometry (AID 2039)
Reported metric: pEC50
In plain terms, pEC50 is the concentration in mol/L turned into minus its base-10 logarithm.

See these solved cases before continuing.
For the record O=C1N=c2ccc(Br)cc2=C1c1[nH]c2ccccc2c1NO , what value of pEC50 is listed for Ras-related C3 botulinum toxin substrate 1 (Mus musculus, UniProt P63001)?
4.49

Identify the measured pEC50 of O=C1N=c2c(Br)cccc2=C1c1[nH]c2ccccc2c1NO for Ras-related C3 botulinum toxin substrate 1 (Mus musculus, UniProt P63001).
4.52

Given the entry O=C1N=c2ccccc2=C1c1[nH]c2ccccc2c1NO , what pEC50 was observed with Ras-related C3 botulinum toxin substrate 1 (Mus musculus, UniProt P63001)?
4.52

Record lookup: for Ras-related C3 botulinum toxin substrate 1 (Mus musculus, UniProt P63001), what pEC50 belongs to O=C1Nc2ccc(Br)cc2C1=C1Nc2ccccc2C1=O ?
4.91

Please state recorded pEC50 (tested on Ras-related C3 botulinum toxin substrate 1 (Mus musculus, UniProt P63001)) of O=C1Nc2c(Br)cccc2C1=C1Nc2ccccc2C1=O
4.56

---
Please tell me: pEC50 of O=C1NC(=O)/C(=C2/C(=O)Nc3ccccc32)N1 , system Ras-related C3 botulinum toxin substrate 1 (Mus musculus, UniProt P63001)?
4.94

# value lookup — system Ras-related C3 botulinum toxin substrate 1 (Mus musculus, UniProt P63001), readout pEC50, item O=C1NC(=S)N/C1=C1\C(=O)Nc2ccccc21
5.16

Form: Entry = O=C1Nc2ccccc2/C1=C1/Nc2ccccc2C1=O | System = Ras-related C3 botulinum toxin substrate 1 (Mus musculus, UniProt P63001) | pEC50 = ____
4.52

Please state recorded pEC50 (tested on Ras-related C3 botulinum toxin substrate 1 (Mus musculus, UniProt P63001)) of O=C1N=c2c(Cl)cccc2=C1c1[nH]c2ccccc2c1NO
4.52

Query for Ras-related C3 botulinum toxin substrate 1 (Mus musculus, UniProt P63001): what pEC50 does the record show for O=C1N=c2c(F)cccc2=C1c1[nH]c2ccccc2c1NO ?
4.50

Record O=C1Nc2c(F)cccc2C1=C1Nc2ccccc2C1=O : what is its pEC50 with Ras-related C3 botulinum toxin substrate 1 (Mus musculus, UniProt P63001)?
4.52

Observed pEC50 on Ras-related C3 botulinum toxin substrate 1 (Mus musculus, UniProt P63001) for O=C1Nc2c(Cl)cccc2C1=C1Nc2ccccc2C1=O , please.
4.52
